The following are reported Ki results, target or system Sodium-dependent dopamine transporter (Rattus norvegicus, UniProt P23977).
Numeric answer only, unit nM assumed.

Please report the measured Ki for C[C@H](O)CN1[C@H](C)CN(CCSC(c2ccc(F)cc2)c2ccc(F)cc2)C[C@@H]1C
28.5

For the molecule C[C@@H](O)CN1CCN(CCSC(c2ccc(F)cc2)c2ccc(F)cc2)CC1 , report Ki.
73.2

Answer with the recorded Ki of O[C@H](Cc1ccccc1)CN1CCN(CCSC(c2ccc(F)cc2)c2ccc(F)cc2)CC1 only.
3.93

# return recorded Ki for input C[C@H](O)CN1CCN(CCSC(c2ccc(F)cc2)c2ccc(F)cc2)CC1
37.9

Please report Ki for the following molecule: OC(CN1CCC2(CCN(CCSC(c3ccc(F)cc3)c3ccc(F)cc3)CC2)C1)c1ccccc1 (centres undefined)
127

Look up Ki of [O-][S+](CCN1CCN(CC(O)Cc2ccc(C(F)(F)F)cc2)CC1)C(c1ccc(F)cc1)c1ccc(F)cc1 (centres undefined) and report it.
11.7

Determine from records and report Ki for [O-][S+](CCCN1CCN(CCCc2ccccc2)CC1)C(c1ccc(F)cc1)c1ccc(F)cc1 (centres undefined)
40.3

Specify measured Ki for O=C(CCc1ccccc1)N1CCN(CCSC(c2ccc(F)cc2)c2ccc(F)cc2)CC1 .
2830

Give recorded Ki. OC(Cc1ccc(F)cc1)CN1CCN(CCSC(c2ccc(F)cc2)c2ccc(F)cc2)CC1 (centres undefined)
1.72

Consider the molecule C[C@@H](O)CN1CCN(CC[S+]([O-])C(c2ccc(F)cc2)c2ccc(F)cc2)CC1 (some centres undefined) and give its recorded Ki.
782

# return recorded Ki for input C[C@@H]1CN(CCSC(c2ccc(F)cc2)c2ccc(F)cc2)C[C@H](C)N1C[C@@H](C)O
39.4

Identify the reported Ki for the following entry. CC(=O)CN1CCN(CCSC(c2ccc(F)cc2)c2ccc(F)cc2)CC1
182

Name the recorded Ki of the item OC(Cc1ccc(C(F)(F)F)cc1)CN1CCN(CCSC(c2ccc(F)cc2)c2ccc(F)cc2)CC1 (centres undefined) in your answer.
23.4

Determine from records and report Ki for C[C@H](O)CN1CCN(CC[S+]([O-])C(c2ccc(F)cc2)c2ccc(F)cc2)CC1 (some centres undefined)
536

The values you see were collected from ChEMBL document CHEMBL4613215.
